# Subject Of Test: FGF-1 (Homo sapiens, UniProt P05230)
# Sequence (P05230 whole entry, species assumed): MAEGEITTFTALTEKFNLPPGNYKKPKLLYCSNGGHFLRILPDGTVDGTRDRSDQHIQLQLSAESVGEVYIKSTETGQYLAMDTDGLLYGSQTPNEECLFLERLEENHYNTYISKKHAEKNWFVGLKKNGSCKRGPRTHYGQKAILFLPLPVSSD
# Assay Comment: Growth factor binding assay (SPR solution affinity), FGF-1
# Experimental Context: SPR, HBS-EP buffer, 25° C.; read-out: Kd FGF-1
Quantity: pKd
Reminder that pKd means the negative base-10 logarithm of the concentration expressed in mol/L.

CCCCCCCCCCCCCCCCCC(=O)NCCCOC1OC(COS(=O)(=O)O)C(OS(=O)(=O)O)C(OS(=O)(=O)O)C1OC1OC(COS(=O)(=O)O)C(OS(=O)(=O)O)C(OC2OC(COS(=O)(=O)O)C(OS(=O)(=O)O)C(OC3OC(COS(=O)(=O)O)C(OS(=O)(=O)O)C(OS(=O)(=O)O)C3OS(=O)(=O)O)C2OS(=O)(=O)O)C1OS(=O)(=O)O (stereo not shown)
9.36
CC(C)CCCC(C)C1CCC2C3CCC4CC(OC5OC(COS(=O)(=O)O)C(OS(=O)(=O)O)C(OS(=O)(=O)O)C5OC5OC(COS(=O)(=O)O)C(OS(=O)(=O)O)C(OC6OC(COS(=O)(=O)O)C(OS(=O)(=O)O)C(OS(=O)(=O)O)C6OS(=O)(=O)O)C5OS(=O)(=O)O)CCC4(C)C3CCC12C (stereo not shown)
7.73

For FGF-1 (Homo sapiens, UniProt P05230), give pKd of the listed molecule: CC(C)CCCC(C)C1CCC2C3CCC4CC(OCC(=O)NC5OC(COS(=O)(=O)O)C(OC6OC(COS(=O)(=O)O)C(OC7OC(COS(=O)(=O)O)C(OS(=O)(=O)O)C(OS(=O)(=O)O)C7OS(=O)(=O)O)C(OS(=O)(=O)O)C6OS(=O)(=O)O)C(OS(=O)(=O)O)C5OS(=O)(=O)O)CCC4(C)C3CCC12C (stereo not shown)
7.89

Provide FGF-1 (Homo sapiens, UniProt P05230) pKd reading for CC(C)CCCC(C)C1CCC2C3CCC4CC(OC5OC(COS(=O)(=O)O)C(OS(=O)(=O)O)C(OS(=O)(=O)O)C5OC5OC(COS(=O)(=O)O)C(OS(=O)(=O)O)C(OC6OC(COS(=O)(=O)O)C(OS(=O)(=O)O)C(OC7OC(COS(=O)(=O)O)C(OS(=O)(=O)O)C(OS(=O)(=O)O)C7OS(=O)(=O)O)C6OS(=O)(=O)O)C5OS(=O)(=O)O)CCC4(C)C3CCC12C (stereo not shown) .
9.22
